test system: TK-10; experiment: NCI tumour cell line growth inhibition, 48 h
Active and inactive are the calls of the source. No stated cut-off is given here; in the data, active = GI50 up to about 1.1 µM and inactive = higher.
As shown below, each of these molecules has a reported GI50 value.
observed property: GI50

COC(=O)CSc1ccccc1 :: > 100 µM (inactive)
C=C=C(CC)C(C(=O)OC)N(CC)CC (stereo unspecified) :: > 100 µM (inactive)
O=S(=O)(C1=CC(S(=O)(=O)c2ccccc2)CN(Cc2ccccc2)C1c1cccc2ccccc12)c1ccccc1 (stereo unspecified) :: > 69 µM (inactive)
CC(C)=CCN=C(N)N :: > 100 µM (inactive)
Cc1cccc(/C=C2/C(=O)Nc3ccccc32)n1 :: 15.7 µM (inactive)
CC(=O)OC1CCn2nnc(CO[Si](C)(C)C(C)(C)C)c21 (stereo unspecified) :: > 100 µM (inactive)
